- System: Staphylococcus aureus
- Protocol Conditions: Concentration 20 uM; ASSAY_TEST Inhibition of Bacterial Growth; detection method Absorption (OD600); MEDIA CAMHB; plate type 384well; NBS; CORNING #3640; time 18 hr
- Description: Antibacterial activity against Staphylococcus aureus MRSA ATCC 43300 (CO-ADD:GP_020); MIC in CAMBH media, using NBS plates, by OD(600)
Entries with a potency or affinity are not part of this list.
Measured Attribute: Inhibition (%)
Please state the figure in %; there is no need to write the unit.

As a guide, the following entries are already answered.
# Compound, Inhibition / %
records = [
    ("Cc1[nH]cnc1CN1CCc2c(c3ccccc3n2C)C1=O.Cl [ALOSETRON HYDROCHLORIDE]", 8.61),
    ("CS(=O)(=O)OCCCCOS(C)(=O)=O", 14.7),
    ("Br.CN(C)CCCC1(c2ccc(F)cc2)OCc2cc(C#N)ccc21 (configuration not stated) [CITALOPRAM HYDROBROMIDE]", 3.11),
    ("CCCN[C@H]1CCc2nc(N)sc2C1 [PRAMIPEXOLE]", -18.52),
    ("CNC(=C[N+](=O)[O-])NCCSCc1ccc(CN(C)C)o1.Cl [RANITIDINE HYDROCHLORIDE]", -17.46),
    ("Cl.O=C1[C@H]2CCCC[C@H]2C(=O)N1CCCCN1CCN(c2nsc3ccccc23)CC1", 14.1),
]

# Inhibition (compound: CS(=O)(=O)O.Oc1ccc(C2CNCCc3c2cc(O)c(O)c3Cl)cc1 (configuration not stated) [FENOLDOPAM MESYLATE] ) is 13.63

Entry C[C@]12C=CC(=O)C=C1CC[C@@H]1[C@@H]2[C@@H](O)C[C@@]2(C)[C@H]1CC[C@]2(O)C(=O)COC(=O)CCC(=O)[O-].[Na+] [PREDNISOLONE SODIUM SUCCINATE] ; Inhibition = 5.71

Lookup result for COC(=O)C1=C(C)NC(C)=C(C(=O)OCCN(C)Cc2ccccc2)C1c1cccc([N+](=O)[O-])c1.Cl (configuration not stated) [NICARDIPINE HYDROCHLORIDE] ; measured Inhibition: -1.65

The recorded Inhibition for entry COc1ccc2c(c1)c(CC(=O)O)c(C)n2C(=O)c1ccc(Cl)cc1.O equals 8.16

The recorded Inhibition for entry Cl.NC12CC3CC(CC(C3)C1)C2 [AMANTADINE HYDROCHLORIDE] equals 17.85

The measured Inhibition associated with NNCCc1ccccc1.O=S(=O)(O)O [PHENELZINE SULFATE] reads -0.33

Where these numbers come from: ChEMBL document CHEMBL4513141
